protocol details: physchem
test conditions: acetate buffer, pH 4
Description: Aqueous solubility of the compound in pH 4 acetate buffer by RP-UPLC analysis
Would you kindly list solubility for each of these compounds?

Query: I am curious: what solubility value has been reported for "COC(=O)N[C@H](C(=O)N[C@@H](Cc1ccccc1)[C@H](CN(Cc1ccc(-c2ccccn2)cc1)NC(=O)[C@@H](NC(=O)OC)C(C)(C)C)OC(=O)[C@@H](N)CCSC)C(C)(C)C" ?
Response: > 1530 µg/mL

Query: I am curious: what solubility value has been reported for "COC(=O)N[C@H](C(=O)N[C@@H](Cc1ccccc1)[C@H](CN(Cc1ccc(-c2ccccn2)cc1)NC(=O)[C@@H](NC(=O)OC)C(C)(C)C)OP(=O)(O)O)C(C)(C)C" ?
Response: 250 µg/mL

Query: I am curious: what solubility value has been reported for "COC(=O)N[C@H](C(=O)N[C@@H](Cc1ccccc1)[C@H](CN(Cc1ccc(-c2ccccn2)cc1)NC(=O)[C@@H](NC(=O)OC)C(C)(C)C)OC(=O)CNC(=O)[C@H](N)Cc1ccccc1)C(C)(C)C" ?
Response: > 2300 µg/mL

###

protocol details: Oral bioavailability in rat
Format: ADME, organism-based
test conditions: in vivo
reported endpoint: bioavailability (%)
Unit % implied. Number only.

Query: I am curious: what bioavailability value has been reported for "COC(=O)N[C@H](C(=O)N[C@@H](Cc1ccccc1)[C@@H](O)CN(Cc1ccc(-c2ccccn2)cc1)NC(=O)[C@@H](NC(=O)OC)C(C)(C)C)C(C)(C)C" ?
Response: 15

###

protocol details: Cmax in cannulated Sprague-Dawley rat assessed as atazanavir level at 30 mg/kg equiv of atazanavir administered orally by UPLC/MS/MS analysis
Assay type: ADME, organism-based
Set-up: dose 30 mg/kg, route oral
test conditions: in vivo, po
reported endpoint: Cmax (µM)
Unit µM implied. Number only.

Query: I am curious: what Cmax value has been reported for "COC(=O)N[C@H](C(=O)N[C@@H](Cc1ccccc1)[C@H](CN(Cc1ccc(-c2ccccn2)cc1)NC(=O)[C@@H](NC(=O)OC)C(C)(C)C)OC(=O)[C@@H](N)Cc1ccccc1)C(C)(C)C" ?
Response: 4.72

Query: I am curious: what Cmax value has been reported for "COC(=O)N[C@H](C(=O)N[C@@H](Cc1ccccc1)[C@H](CN(Cc1ccc(-c2ccccn2)cc1)NC(=O)[C@@H](NC(=O)OC)C(C)(C)C)OC(=O)CN(C)C(=O)[C@@H](N)Cc1ccccc1)C(C)(C)C.Cl.Cl" ?
Response: 8.76

###

Would you kindly list half-life at 50000 µM for each of these compounds?
protocol details: physchem
test conditions: 30% CH3CN/acetate buffer, pH 4
Description: Half life in pH 4 30%CH3CN/acetate buffer at 50 mM by RP-UPLC analysis

Query: I am curious: what half-life at 50000 µM value has been reported for "COC(=O)N[C@H](C(=O)N[C@@H](Cc1ccccc1)[C@H](CN(Cc1ccc(-c2ccccn2)cc1)NC(=O)[C@@H](NC(=O)OC)C(C)(C)C)OC(=O)[C@@H](C)N)C(C)(C)C" ?
Response: > 20.8 days

Query: I am curious: what half-life at 50000 µM value has been reported for "COC(=O)N[C@H](C(=O)N[C@@H](Cc1ccccc1)[C@H](CN(Cc1ccc(-c2ccccn2)cc1)NC(=O)[C@@H](NC(=O)OC)C(C)(C)C)OC(=O)CN(C)C)C(C)(C)C" ?
Response: > 20.8 days

Query: I am curious: what half-life at 50000 µM value has been reported for "COC(=O)N[C@H](C(=O)N[C@@H](Cc1ccccc1)[C@H](CN(Cc1ccc(-c2ccccn2)cc1)NC(=O)[C@@H](NC(=O)OC)C(C)(C)C)OC(=O)[C@H](N)Cc1ccccc1)C(C)(C)C" ?
Response: > 20.8 days

###

protocol details: physchem
test conditions: acetate buffer, pH 4
reported endpoint: solubility

Query: I am curious: what solubility value has been reported for "COC(=O)N[C@H](C(=O)N[C@@H](Cc1ccccc1)[C@H](CN(Cc1ccc(-c2ccccn2)cc1)NC(=O)[C@@H](NC(=O)OC)C(C)(C)C)OC(=O)[C@@H](C)N)C(C)(C)C" ?
Response: > 1700 µg/mL

Query: I am curious: what solubility value has been reported for "COC(=O)N[C@H](C(=O)N[C@@H](Cc1ccccc1)[C@H](CN(Cc1ccc(-c2ccccn2)cc1)NC(=O)[C@@H](NC(=O)OC)C(C)(C)C)OC(=O)CNC(=O)[C@@H](N)Cc1ccccc1)C(C)(C)C" ?
Response: > 3500 µg/mL

Query: I am curious: what solubility value has been reported for "COC(=O)N[C@H](C(=O)N[C@@H](Cc1ccccc1)[C@H](CN(Cc1ccc(-c2ccccn2)cc1)NC(=O)[C@@H](NC(=O)OC)C(C)(C)C)OC(=O)[C@H](N)Cc1ccccc1)C(C)(C)C" ?
Response: > 1200 µg/mL

Query: I am curious: what solubility value has been reported for "CNCC(=O)O[C@@H](CN(Cc1ccc(-c2ccccn2)cc1)NC(=O)[C@@H](NC(=O)OC)C(C)(C)C)[C@H](Cc1ccccc1)NC(=O)[C@@H](NC(=O)OC)C(C)(C)C" ?
Response: > 2400 µg/mL

Query: I am curious: what solubility value has been reported for "COC(=O)N[C@H](C(=O)N[C@@H](Cc1ccccc1)[C@H](CN(Cc1ccc(-c2ccccn2)cc1)NC(=O)[C@@H](NC(=O)OC)C(C)(C)C)OC(=O)[C@H](C)N)C(C)(C)C" ?
Response: > 1100 µg/mL

Query: I am curious: what solubility value has been reported for "COC(=O)N[C@H](C(=O)N[C@@H](Cc1ccccc1)[C@H](CN(Cc1ccc(-c2ccccn2)cc1)NC(=O)[C@@H](NC(=O)OC)C(C)(C)C)OC(=O)[C@@H](N)Cc1ccc(O)cc1)C(C)(C)C" ?
Response: > 1420 µg/mL
